- Tested on: HEK-293T
- protocolDescription: Multiplex assay against HEK293T
- Type: toxicity, cell-based
- studyConditions: human, 48 h, 10 µM, compound concentration 10 uM, replicate 1
observationType: Population Mitochondria Different-Phenotype (%)
Returns: string containing the number followed by the unit.

C[C@@H](NCCCc1cccc(C(F)(F)F)c1)c1cccc2ccccc12.Cl [CINACALCET HYDROCHLORIDE]    100%

// query I am curious: what Population Mitochondria Different-Phenotype (%) value has been reported for CCOCCn1cc(C(=O)Nc2ccc(-n3nc(-c4cccnc4)cc3C(F)(F)F)cn2)ccc1=O [BI 1935] ?
// result 89%

// query Thanks! And CNc1nc(NCc2ccc(NS(C)(=O)=O)cc2Cl)cc(-c2ccccn2)n1 ?
// result 85%

---

- Test system: HEK-293T
- protocolDescription: Incucyte cell viability with HEK293T; further: filed as whole numbers so only -1 and 0 and 1 occur
- Format: toxicity, cell-based
- studyConditions: human, 12 h, 10 µM, compound concentration 10 uM, replicate number 1, timepoint 12 hours
Parameter Growth Rate: see the listing below.
// no unit string in output, number only

Cl.Cl.c1ccc([C@@H]2C[C@H]2NC2CCNCC2)cc1    1
Cc1c(C(=O)NC2CCCCC2)sc2nc3ccc(N)cc3n12.Cl    0
CCC(=O)Nc1cccc(Oc2nc(Nc3ccc(N4CCN(C)CC4)cc3OC)ncc2Cl)c1    0
N#Cc1ccc(NC(=O)Nc2ccccc2Br)c2nn[nH]c12    1
C=CC(=O)Nc1cc2c(Nc3ccc(F)c(Cl)c3)ncnc2cc1OCCCN1CCOCC1.Cl.Cl [CANERTINIB DIHYDROCHLORIDE]    0

With those in mind, consider the next compound.
// query I am curious: what Growth Rate value has been reported for O=C(NCCN1CCOCC1)c1ccc2c(c1)C(=O)c1ccc(Nc3ccc(F)c(NC(=O)c4ccccc4)c3)cc1CC2 ?
// result 0

---

Parameter Population Hoechst High Intensity Objects (%): see the listing below.
- Tested on: Fibroblast
- protocolDescription: Multiplex assay against human fibroblast
- Type: toxicity, cell-based
- studyConditions: 24 h, 10 µM, compound concentration 10 uM, replicate 1
Give the quantity in %, number only.

C=CC(=O)Nc1ccc2ncnc(Nc3ccc(OCc4cccc(F)c4)c(Cl)c3)c2c1.Cc1ccc(S(=O)(=O)O)cc1    8
CN1CCN(CCOc2cc(OC3CCOCC3)c3c(Nc4c(Cl)ccc5c4OCO5)ncnc3c2)CC1    26
CN(C)C(=O)/C(C#N)=C/c1ccc(-c2nc3cnc4[nH]ccc4c3n2C2CCCCC2)o1    61

With those in mind, consider the next compound.
// query I am curious: what Population Hoechst High Intensity Objects (%) value has been reported for CC(C)NCC(O)COc1ccc(CCOCC2CC2)cc1.Cl (centres undefined) [BETAXOLOL HYDROCHLORIDE] ?
// result 15

---

Parameter Growth Rate: see the listing below.
- System: HEK-293T
- protocolDescription: Incucyte cell viability with HEK293T; further: filed as whole numbers so only -1 and 0 and 1 occur
- Format: toxicity, cell-based
- studyConditions: human, 24 h, 10 µM, compound concentration 10 uM, replicate number 1, timepoint 24 hours
// no unit string in output, number only

These recorded examples may help you get a feel for the data.
CNCc1ccccc1-c1csc([C@H](C)Nc2nc(C)nc3cc(OC)c(OC)cc23)c1 [BAY-294]    0
O=c1nc(-c2ccccn2)sc2ccccc12 [BTZO-1]    1
CCC(=O)N1CCOc2c(cc(-c3ccc(OC)c(OC)c3)cc2OC[C@H]2CCCN(C)C2)C1    0

// query I am curious: what Growth Rate value has been reported for CC(=O)OCC(=O)[C@@]1(O)CC[C@H]2[C@@H]3CCC4=CC(=O)CC[C@]4(C)[C@@]3(F)[C@@H](O)C[C@@]21C [FLUDROCORTISONE ACETATE] ?
// result 1

// query Thanks! And C[C@H](c1ccc(F)cc1)N(Cc1ccc(Cl)c(C(=O)O)c1)C(=O)c1cnc2ccccc2c1 [PF-05257137] ?
// result 1

// query Thanks! And Nc1nc(NCc2ccccc2)nc(-c2ccccc2CO)n1 [Ogerin] ?
// result 0

// query Thanks! And Clc1cccc(-c2nnnn2Cc2cccnc2)c1Cl ?
// result 1

// query Thanks! And COc1ccc2cc(OCC3(C(=O)O)CN(C(=O)c4ccc(F)cc4)C3)ccc2c1 [PF-04418948] ?
// result 1

// query Thanks! And C[C@@H]1CCN(C(=O)CC#N)C[C@@H]1N(C)c1ncnc2[nH]ccc12.O=C(O)CC(O)(CC(=O)O)C(=O)O [TOFACITINIB CITRATE] ?
// result 1

// query Thanks! And COc1cc2nccc(Oc3ccc(NC(=O)Nc4cc(C)on4)c(Cl)c3)c2cc1OC.O ?
// result 0

// query Thanks! And C[C@@]1(Cc2ccc(C#N)cc2)C(=O)N(c2cc(Cl)cc(Cl)c2)c2ncc(C(=O)NC3(c4nc(C5CCC5)no4)CC3)n21 [BI 9446] ?
// result 0

// query Thanks! And Cn1cc(-c2[nH]c3cc(NC(=O)[C@H](N)C4CCCCC4)cc4c3c2C=NNC4=O)cn1 ?
// result 0

// query Thanks! And N#CC(Cc1ccc(O)cc1)c1ccc(O)cc1 (configuration not stated) [DIARYLPROPIONITRILE] ?
// result 0

// query Thanks! And Cn1cnc2c(F)c(Nc3ccc(Br)cc3Cl)c(C(=O)NOCCO)cc21 [SELUMETINIB] ?
// result 1

// query Thanks! And Br.Br.N=C(N)SCCc1c[nH]cn1 ?
// result 1
